Tgt: T1, monkey MSLN on HEK293T-monkey MSLN recombinant cells (monkey)
T1 construct: Full-length precursor as transfected; processing on the cell is not described; also called HEK293-monkey MSLN
T1 chain: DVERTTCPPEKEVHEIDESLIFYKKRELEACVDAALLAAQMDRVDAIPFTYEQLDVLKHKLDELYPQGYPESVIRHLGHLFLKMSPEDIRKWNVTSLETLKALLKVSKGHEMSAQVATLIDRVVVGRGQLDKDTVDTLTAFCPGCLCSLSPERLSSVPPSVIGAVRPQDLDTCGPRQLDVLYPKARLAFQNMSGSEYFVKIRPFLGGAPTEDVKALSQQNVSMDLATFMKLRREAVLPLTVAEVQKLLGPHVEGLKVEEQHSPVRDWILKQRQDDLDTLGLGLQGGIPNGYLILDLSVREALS
Test Summary: FACS, HEK293T-monkey MSLN cells
Form field: Maximum_MFI (one value per entry).
Assay Readout: Maximum_MFI (MFI)

>>> experimental_value("F7.44.20-H8 (scFv, not shown: small tags and cut ends, also called S009-F7.44.20 humanized antibody VH1a + VL4) scFv: EVQLVQSGAEVKKPGASVKVSCKASGYTFTDYNMDWVRQAPGQGLEWMGDINPSTGGTIYNQKFQGRVTMTEDKSTSTVYMELSSLRSEDTAVYYCARRRIGTGYFDVWGQGTTVTVSSGGGGSGGGGSGGGGSEIVLTQSPATLSLSPGERATLSCSASSSVISSYLSWYQQKPGSSPRLLIYRTSNLASGIPARFSGSGSGTDYTLTISSLEPEDFAVYYCHQWSSFPYTFGGGTKVEIK")
6320
>>> experimental_value("F7.44.20-H16 (scFv, not shown: small tags and cut ends, also called S009-F7.44.20 humanized antibody VH2a + VL4) scFv: EVQLVQSGAEVKKPGASVKVSCKASGYTFTDYNMDWVRQAPGQGLEWMGDINPSTGGTIYNQKFSGRVTMTEDKSASTVYMELSSLRSEDTAVYYCARRRIGTGYFDVWGQGTTVTVSSGGGGSGGGGSGGGGSEIVLTQSPATLSLSPGERATLSCSASSSVISSYLSWYQQKPGSSPRLLIYRTSNLASGIPARFSGSGSGTDYTLTISSLEPEDFAVYYCHQWSSFPYTFGGGTKVEIK")
5980
>>> experimental_value("F7.44.20-H15 (scFv, not shown: small tags and cut ends, also called S009-F7.44.20 humanized antibody VH2a + VL3) scFv: EVQLVQSGAEVKKPGASVKVSCKASGYTFTDYNMDWVRQAPGQGLEWMGDINPSTGGTIYNQKFSGRVTMTEDKSASTVYMELSSLRSEDTAVYYCARRRIGTGYFDVWGQGTTVTVSSGGGGSGGGGSGGGGSEIVLTQSPATLSLSPGERATLSCSASSSVISSYLSWYQQKPGQSPRLLIYRTSNLASGIPARFSGSGSGTDYTLTISSLEPEDFAVYYCHQWSSFPYTFGGGTKVEIK")
8090

Sourced from patent US20250250357A1
